biological target: CDK6/cyclin D3 (Homo sapiens, UniProt Q00534); construct: purchased Carna; test: In vitro biochemical kinase activity assay for CDK6/cyclin D3 (HTRF); settings: data marked with *: 1 mM ATP in Step 1
Sequence (Q00534 whole entry, one chain of several): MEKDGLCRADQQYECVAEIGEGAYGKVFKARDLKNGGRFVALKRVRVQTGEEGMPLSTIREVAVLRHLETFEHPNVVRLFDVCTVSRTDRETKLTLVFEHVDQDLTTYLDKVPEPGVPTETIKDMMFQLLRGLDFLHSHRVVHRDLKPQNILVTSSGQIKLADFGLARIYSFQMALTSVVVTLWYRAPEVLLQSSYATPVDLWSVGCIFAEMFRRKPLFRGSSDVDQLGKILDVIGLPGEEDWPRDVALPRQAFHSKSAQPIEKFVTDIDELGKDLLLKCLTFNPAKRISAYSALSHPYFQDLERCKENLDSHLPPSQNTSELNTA
Readings of IC50 for the listed molecules
metric name: IC50 (nM)

>>> df
                                   molecule  metric_name  observed
0  CC(C)n1c(C#Cc2cc(N[C@@H]3CCOC[C@H]3O)ncc2Cl)cnc1C(C)(C)O         IC50       135
1  CC(C)n1c(C#Cc2nc(N[C@H]3CC[C@H](NS(C)(=O)=O)CC3)ncc2Cl)cnc1C(C)(C)O         IC50       190
2  CC(C)n1c(C#Cc2nc(N[C@@H]3CCOC[C@H]3O)ncc2Cl)cnc1C1(O)CC1         IC50      75.9
3  CC(C)n1c(C#Cc2nc(N[C@@H]3CCOC[C@H]3O)ncc2Cl)cnc1CN1CCC[C@@H](O)C1         IC50       393
4  CC(C)n1c(C#Cc2nc(N[C@@H]3CCOC[C@H]3O)ncc2Cl)cnc1CN1CCCC(C)(O)C1 (some centres unmarked)         IC50       451
5  CC(C)n1c(C#Cc2nc(N[C@@H]3CCOC[C@H]3O)ncc2Cl)cnc1C1CCO1 (some centres unmarked)         IC50      1240
6  CCN1CCN(Cc2ccc(Nc3ncc(F)c(C#Cc4cnn(C)c4C(C)C)n3)nc2)CC1         IC50       131
7  [2H]C(C)(O)c1ncc(C#Cc2nc(N[C@@H]3CCOC[C@H]3O)ncc2Cl)n1C(C)C (some centres unmarked)         IC50      38.4

* * *

Target: CDK4/cyclin D3 (Homo sapiens, UniProt P11802)
Construct: purchased Carna
Sequence (P11802 whole entry): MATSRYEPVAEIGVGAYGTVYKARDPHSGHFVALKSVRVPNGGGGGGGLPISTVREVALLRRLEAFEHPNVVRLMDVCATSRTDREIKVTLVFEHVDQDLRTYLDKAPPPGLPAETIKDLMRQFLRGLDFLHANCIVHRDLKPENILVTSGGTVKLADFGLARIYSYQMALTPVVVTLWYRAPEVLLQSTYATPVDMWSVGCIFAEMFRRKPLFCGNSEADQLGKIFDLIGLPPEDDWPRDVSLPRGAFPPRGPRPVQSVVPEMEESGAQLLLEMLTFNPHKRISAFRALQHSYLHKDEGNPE
Sequence (P30281 whole entry partner): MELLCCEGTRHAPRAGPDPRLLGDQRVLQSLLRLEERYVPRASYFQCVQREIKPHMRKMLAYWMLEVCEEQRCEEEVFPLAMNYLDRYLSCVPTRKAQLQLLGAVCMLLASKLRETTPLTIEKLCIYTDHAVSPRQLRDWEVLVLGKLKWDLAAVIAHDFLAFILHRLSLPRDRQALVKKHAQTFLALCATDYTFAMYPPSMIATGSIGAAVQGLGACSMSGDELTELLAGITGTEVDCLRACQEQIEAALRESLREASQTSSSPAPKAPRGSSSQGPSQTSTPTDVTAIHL
Assay: In vitro biochemical kinase activity assay for CDK4/cyclin D3 (HTRF)
Details: data marked with *: 1 mM ATP in Step 1
Protocol: II. In Vitro Biochemical Kinase Activity Assay for CDK4/Cyclin D3 The inhibitory effects of the compounds of the present invention on CDK4/cyclin D3 kinase activity were determined using an HTRF assay. The experimental process was as follows: • 1. The kinase reaction was carried out in a 384-well plate. […] The plate was transferred to an Envision plate reader to detect FRET signals. (The 665/615 ratio was calculated by reading the emission at 665 nm and 615 nM, respectively.) • 4. […]
metric name: IC50 (nM)

In [3]: df
Out[3]:
                                   compound  observed
0  CC(C)c1c(C#Cc2nc(Nc3ccc(N4CC5(CN(C)C5)C4)cn3)ncc2F)cnn1C [Example 93]      7.28
1  CC(C)n1c(C#Cc2nc(N[C@@H]3CCOC[C@H]3O)ncc2Cl)cnc1C(=O)N1CCC[C@H](O)C1 [Example 117]       615
2  CC(C)c1c(C#Cc2nc(N[C@@H]3CCOC[C@H]3O)ncc2Cl)cnn1CC(F)F [Example 128]      53.3
3  COC1COCC[C@H]1Nc1ncc(Cl)c(C#Cc2cnc(C(C)(C)O)n2C(C)C)n1 (stereo partly shown) [Example 92]      99.7

* * *

biological target: CDK6/cyclin D3 (Homo sapiens); construct: purchased Carna; test: In vitro biochemical kinase activity assay for CDK6/cyclin D3 (HTRF); conditions: data marked with *: 1 mM ATP in Step 1
pIC50: −log10 of the molar value.
A collection of compounds and their measured pIC50
metric name: pIC50

                                    compound                      tested_on  metric_name  observed
 0  CC(C)n1c(C#Cc2nc(Nc3ccc(N4CC5(CN(C)C5)C4)cn3)ncc2Cl)cnc1CN1CCC[C@H](O)C1 [Example 115]  CDK6/cyclin D3 (Homo sapiens)        pIC50      7.75
 1  CC(C)n1c(C#Cc2nc(N[C@@H]3CCOC[C@H]3F)ncc2Cl)cnc1C(C)(C)O [Example 91]  CDK6/cyclin D3 (Homo sapiens)        pIC50      6.48
 2  CCN1CCN(Cc2ccc(Nc3ncc(Cl)c(C#Cc4cnc(C(C)O)n4C(C)C)n3)nc2)CC1 (stereo not drawn) [Example 122]  CDK6/cyclin D3 (Homo sapiens)        pIC50      8.11
 3  CC(=O)N[C@@H]1COCC[C@H]1Nc1ncc(Cl)c(C#Cc2cnc(C(C)(C)O)n2C(C)C)n1 [Example 87]  CDK6/cyclin D3 (Homo sapiens)        pIC50      5.03
 4  CN(C)c1c(C#Cc2nc(N[C@@H]3CCOC[C@H]3O)ncc2Cl)cnn1C [Example 130]  CDK6/cyclin D3 (Homo sapiens)        pIC50      6.65
 5  CCN1CC2(C1)CN(c1ccc(Nc3ncc(Cl)c(C#Cc4cnc(C(C)(C)O)n4C(C)C)n3)nc1)C2 [Example 71]  CDK6/cyclin D3 (Homo sapiens)        pIC50      8.20
 6  CC(C)n1c(C#Cc2nc(N[C@@H]3CCOC[C@H]3O)ncc2Cl)cnc1C(C)(O)C1CC1 (stereo partly drawn) [Example 125]  CDK6/cyclin D3 (Homo sapiens)        pIC50      7.18
 7  COC1COCC[C@H]1Nc1ncc(Cl)c(C#Cc2cnc(C(C)(C)O)n2C(C)C)n1 (stereo partly drawn) [Example 92]  CDK6/cyclin D3 (Homo sapiens)        pIC50      6.28
 8  CC(C)n1c(C#Cc2nc(N[C@@H]3CCOC[C@H]3O)ncc2Cl)cnc1CN1CCC[C@H](C#N)C1 [Example 103]  CDK6/cyclin D3 (Homo sapiens)        pIC50      6.59
 9  CCN1CCC(c2ccc(Nc3ncc(Cl)c(C#Cc4cnc(C(C)(C)O)n4C(C)C)n3)nc2)CC1 [Example 76]  CDK6/cyclin D3 (Homo sapiens)        pIC50      8.19
10  CC(C)n1c(C#Cc2nc(Nc3ccc(C(=O)N(C)C)cn3)ncc2Cl)cnc1C(C)(C)O [Example 100]  CDK6/cyclin D3 (Homo sapiens)        pIC50      7.59
11  CC(C)n1c(C#Cc2nc(N[C@@H]3CCOC[C@H]3O)ncc2Cl)cnc1N1CCOC1=O [Example 126]  CDK6/cyclin D3 (Homo sapiens)        pIC50      7.12
12  CC(C)n1c(C#Cc2nc(N[C@@H]3CCOC[C@H]3O)ncc2Cl)cnc1CN1CCC[C@H](O)C1 [Example 75]  CDK6/cyclin D3 (Homo sapiens)        pIC50      5.93
13  CC(C)n1c(C#Cc2nc(N[C@@H]3CCOC[C@H]3O)ncc2Cl)cnc1C(=O)N1CCC[C@H](O)C1 [Example 117]  CDK6/cyclin D3 (Homo sapiens)        pIC50      5.26
14  CC(C)n1c(C#Cc2nc(Nc3ccc(C4CCN(C)CC4)cn3)ncc2F)cnc1C(C)(C)O [Example 73]  CDK6/cyclin D3 (Homo sapiens)        pIC50      7.57
15  CC(C)n1c(C#Cc2nc(Nc3ccc(N4CCN(C)CC4=O)cn3)ncc2Cl)cnc1C(C)(C)O [Example 94]  CDK6/cyclin D3 (Homo sapiens)        pIC50      7.75
16  CCN1CCN(Cc2ccc(Nc3ncc(Cl)c(C#Cc4cnc(CN5CCC[C@H](O)C5)n4C(C)C)n3)nc2)CC1 [Example 107]  CDK6/cyclin D3 (Homo sapiens)        pIC50      6.94
17  CC(C)n1c(C#Cc2nc(N[C@@H]3CCOC[C@H]3O)ncc2Cl)cnc1C1(O)CCCC1 [Example 90]  CDK6/cyclin D3 (Homo sapiens)        pIC50      6.60
18  CC(C)n1c(C#Cc2nc(N[C@@H]3CCOC[C@H]3O)ncc2Cl)cnc1CN1CC(C)(O)C1 [Example 38]  CDK6/cyclin D3 (Homo sapiens)        pIC50      5.67
19  CC(C)n1c(C#Cc2nc(N[C@@H]3CCOC[C@H]3O)ncc2Cl)cnc1[C@H](C)N1CCC[C@H](O)C1 [Example 124]  CDK6/cyclin D3 (Homo sapiens)        pIC50      5.94
20  CCN1CCN(Cc2ccc(Nc3ncc(Cl)c(C#Cc4cnc(C(C)(C)O)n4C(C)C)n3)nc2F)CC1 [Example 84]  CDK6/cyclin D3 (Homo sapiens)        pIC50      7.31
21  CC(C)n1c(C#Cc2nc(N[C@@H]3CCOC[C@H]3O)ncc2Cl)cnc1CN1[C@@H](C)COC[C@@H]1C [Example 74]  CDK6/cyclin D3 (Homo sapiens)        pIC50      6.47
22  CC1(C)OCCn2ncc(C#Cc3nc(N[C@@H]4CCOC[C@H]4O)ncc3Cl)c21 [Example 111]  CDK6/cyclin D3 (Homo sapiens)        pIC50      6.47
23  CC(C)n1c(C#Cc2nc(N[C@@H]3CCOC[C@H]3C#N)ncc2Cl)cnc1C(C)(C)O [Example 101]  CDK6/cyclin D3 (Homo sapiens)        pIC50      5.32
24  CC(C)n1c(C#Cc2nc(N[C@@H]3CCOC[C@H]3O)ncc2Cl)cnc1CN1[C@H](C)COC[C@@H]1C [Example 72]  CDK6/cyclin D3 (Homo sapiens)        pIC50      6.58
25  CC(C)n1c(C#Cc2nc(N[C@@H]3CCOC[C@H]3O)ncc2Cl)cnc1C1CC1 [Example 120]  CDK6/cyclin D3 (Homo sapiens)        pIC50      6.89
26  CC(=O)N1CCN(Cc2ccc(Nc3ncc(Cl)c(C#Cc4cnc(CN5CCC[C@H](O)C5)n4C(C)C)n3)nc2)CC1 [Example 106]  CDK6/cyclin D3 (Homo sapiens)        pIC50      6.55
